Reference source: patent US20170008955A1

The following binders are listed with their measured koff values.
target: T1, cSNK:BSA conjugate (bovine, head-to-tail cyclized; conjugated to BSA carrier); assay: BLI 2:1 fit, site 2 (kdis2); 12.5 nM row
T1 construct: also called BSA-cSNK
T1 sequence (P02769 25-607 limits assumed): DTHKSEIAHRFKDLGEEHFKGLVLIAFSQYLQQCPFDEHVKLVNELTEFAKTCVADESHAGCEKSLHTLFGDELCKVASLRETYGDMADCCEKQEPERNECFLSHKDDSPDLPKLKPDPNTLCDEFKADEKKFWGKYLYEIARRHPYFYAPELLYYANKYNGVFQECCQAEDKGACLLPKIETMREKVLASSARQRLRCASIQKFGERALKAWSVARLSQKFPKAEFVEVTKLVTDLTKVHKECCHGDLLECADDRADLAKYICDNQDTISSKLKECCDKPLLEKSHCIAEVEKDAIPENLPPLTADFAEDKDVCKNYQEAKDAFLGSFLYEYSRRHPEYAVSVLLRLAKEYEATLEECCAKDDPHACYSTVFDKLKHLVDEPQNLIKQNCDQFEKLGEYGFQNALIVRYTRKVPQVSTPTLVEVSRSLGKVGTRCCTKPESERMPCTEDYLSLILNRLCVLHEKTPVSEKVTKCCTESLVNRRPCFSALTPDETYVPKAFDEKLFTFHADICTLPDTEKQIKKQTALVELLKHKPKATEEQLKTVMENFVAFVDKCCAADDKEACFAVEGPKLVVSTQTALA
Please state the value followed by its unit.

Record excerpt, results attached:
binder: hu5E3-IgG4 (antibody, V domains shown, human IgG4/kappa; also called humanized 5E3 IgG4) VH: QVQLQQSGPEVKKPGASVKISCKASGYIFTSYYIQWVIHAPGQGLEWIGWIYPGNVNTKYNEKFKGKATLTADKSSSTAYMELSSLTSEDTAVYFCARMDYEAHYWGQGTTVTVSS VL: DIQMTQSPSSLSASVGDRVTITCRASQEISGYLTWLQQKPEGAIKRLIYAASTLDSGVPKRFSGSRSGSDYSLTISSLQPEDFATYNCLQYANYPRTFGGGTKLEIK
assayReadout: koff
measured: 0.0229 s⁻¹

binder: murine monoclonal antibody 5E3 (antibody, V domains shown, mouse antibody of the 5E3 hybridoma; also called murine 5E3; m5E3) VH: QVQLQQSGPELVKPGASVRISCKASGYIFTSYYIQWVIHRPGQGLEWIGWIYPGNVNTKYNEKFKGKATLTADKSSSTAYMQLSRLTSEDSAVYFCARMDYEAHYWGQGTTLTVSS VL: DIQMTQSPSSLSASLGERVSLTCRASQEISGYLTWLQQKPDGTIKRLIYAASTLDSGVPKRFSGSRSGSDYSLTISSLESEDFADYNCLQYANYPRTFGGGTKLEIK
assayReadout: koff
measured: 0.0226 s⁻¹

Now look at this entry.
Tell me measured koff for hu5E3-IgG2 (antibody, V domains shown, human IgG2/kappa; also called humanized 5E3 IgG2) VH: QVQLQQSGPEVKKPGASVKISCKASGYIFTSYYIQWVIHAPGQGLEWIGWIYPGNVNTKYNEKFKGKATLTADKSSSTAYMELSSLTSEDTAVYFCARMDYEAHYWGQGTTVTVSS VL: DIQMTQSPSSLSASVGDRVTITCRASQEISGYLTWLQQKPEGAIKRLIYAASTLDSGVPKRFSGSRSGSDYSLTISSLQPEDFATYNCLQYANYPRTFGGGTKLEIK please.
0.0338 s⁻¹
